tested-target: SIK2 (Homo sapiens, UniProt Q9H0K1)
Sequence (Q9H0K1 whole entry, species assumed): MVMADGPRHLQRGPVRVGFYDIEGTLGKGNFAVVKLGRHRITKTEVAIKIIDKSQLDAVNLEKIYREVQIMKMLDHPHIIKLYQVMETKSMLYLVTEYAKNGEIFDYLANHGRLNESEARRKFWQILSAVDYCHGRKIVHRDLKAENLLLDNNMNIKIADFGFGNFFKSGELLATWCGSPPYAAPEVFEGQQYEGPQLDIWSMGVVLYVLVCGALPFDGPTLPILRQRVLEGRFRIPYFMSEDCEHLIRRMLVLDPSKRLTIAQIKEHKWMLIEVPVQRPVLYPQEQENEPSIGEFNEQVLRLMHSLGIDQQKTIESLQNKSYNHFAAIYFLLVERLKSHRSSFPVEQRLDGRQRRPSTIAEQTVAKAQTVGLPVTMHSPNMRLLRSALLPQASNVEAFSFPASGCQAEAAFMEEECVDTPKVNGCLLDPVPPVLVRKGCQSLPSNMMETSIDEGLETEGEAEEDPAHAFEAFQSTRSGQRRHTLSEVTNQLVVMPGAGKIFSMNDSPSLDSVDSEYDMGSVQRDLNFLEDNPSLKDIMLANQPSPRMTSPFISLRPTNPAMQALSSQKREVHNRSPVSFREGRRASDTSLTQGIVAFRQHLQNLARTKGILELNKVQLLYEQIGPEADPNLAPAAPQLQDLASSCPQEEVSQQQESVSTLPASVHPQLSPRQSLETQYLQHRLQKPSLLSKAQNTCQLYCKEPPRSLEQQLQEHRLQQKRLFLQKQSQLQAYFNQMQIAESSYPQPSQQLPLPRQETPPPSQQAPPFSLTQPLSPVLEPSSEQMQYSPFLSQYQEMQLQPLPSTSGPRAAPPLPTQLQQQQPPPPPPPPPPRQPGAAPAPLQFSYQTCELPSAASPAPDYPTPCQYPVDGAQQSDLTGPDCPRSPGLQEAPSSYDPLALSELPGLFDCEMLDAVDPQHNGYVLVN
experiment-description: SIK2 Enzymatic Assay High Version 2 (High ATP)
Assay type: biochemical
condition-info: enzyme 6 nM, 6 mM ATP and 400 μM HDAC5tide (each 2× final concentration); 30 minutes pre-incubation, 2 hours; ADP-Glo Max luminescence; read-out: SIK2 high ATP IC50 (μM) (Test Example 2)
So basically, the class depends on measured IC50, and the ranges are 0: < 0.005 µM; 1: ≥ 0.005 µM and < 0.04 µM; 2: ≥ 0.04 µM

Prompt line: Looking at Cc1cc(-c2ccn3nc(Nc4cc(C)nc(N5CCCC5)n4)cc3c2)c(OCC(C)(C)O)cn1 [Example 285] , which class would you pick?
Response line: 1

Prompt line: Would you mind sorting Cc1cc(-c2ccn3nc(Nc4cc(C(F)(F)F)c(C(=O)NCC(F)(F)F)cn4)cc3c2)c(OCC(C)(C)O)cn1 [Example 651] into the appropriate category?
Response line: 2

Prompt line: Hello team, could you let me know which band the following compound falls into: CC(C)(C#N)COc1cnc(OC(F)F)cc1-c1ccn2nc(Nc3cnccn3)cc2c1 [Example 707]
Response line: 1

Prompt line: # classify by IC50 band: Cc1cc(-c2ccn3nc(NC(=O)[C@@H]4C[C@H]4C)cc3c2)c(OC[C@@]23CN[C@@H](CO2)C3)cn1 [Example 234]
Response line: 1

Prompt line: Which category fits this record: Cc1cc(-c2ccn3nc(Nc4cc(C)nc(C)n4)cc3c2)c(OC[C@H]2CC3(CCCC3)CO2)cn1 (single isomer, unassigned) [Example 258]
Response line: 2

Prompt line: Kindly state the category for this compound: Cc1cc(-c2ccn3nc(Nc4cc(C)nc(C)n4)cc3c2)c(O[C@H]2CC[C@@H](C#N)CC2)cn1 [Example 556]
Response line: 1

Prompt line: # bin label for Cc1cc(-c2ccn3nc(NC(=O)C4CC4)cc3c2)c(OC[C@@]2(F)CCNC2)cn1 (single isomer, unassigned) [Example 447]
Response line: 1

Prompt line: Classify this compound: Cc1cc(Nc2cc3cc(-c4cc(OC(F)F)ncc4OCC(C)(N)C(F)(F)F)ccn3n2)nc(C)n1 (single isomer, unassigned) [Example 755]
Response line: 0

Prompt line: Band assignment needed for Cc1cc(-c2ccn3nc(Nc4cc(C)nc(C)n4)cc3c2)c(O[C@H]2C[C@H](NS(C)(=O)=O)C2)cn1 [Example 580] please.
Response line: 0

Prompt line: Please report the category associated with Cc1cc(-c2ccn3nc(Nc4cc(C)nc(C)n4)cc3c2)c(OC[C@](C)(N)C(F)(F)F)cn1 (racemic) [Example 267] , nothing else.
Response line: 0

Prompt line: Record COc1cc(Nc2cc3cc(-c4cc(C)ncc4OCC(C)(C)O)ccn3n2)cc(OC)c1C(=O)NC1CC1 [Example 626] — which class?
Response line: 2

Prompt line: Returns: class label. Input: COc1cc(Nc2cc3cc(-c4cc(C)ncc4O[C@H]4CC[C@H](O)CC4)ccn3n2)cc(OC)c1 [Example 645]
Response line: 2

Prompt line: Exam item: assign Cc1cc(-c2ccn3nc(NC(=O)C4CC4)cc3c2)c(O[C@H]2CCN[C@@H](C(F)(F)F)C2)cn1 (single isomer, unassigned) [Example 446] to the correct category.
Response line: 0

Prompt line: Exam item: assign Cc1cc(-c2ccn3nc(Nc4cc(C)nc(C)n4)cc3c2)c(O[C@@H]2COC(C)(C)C2)cn1 (single isomer, unassigned) [Example 533] to the correct category.
Response line: 1
